Consider the following molecules; for each one, report its pIC50.
- Tested on: Z138 cells
- Protocol details: MTT cell proliferation assay
- Assay type: cell-based
- Assay conditions: Homo sapiens, Z-138, Z138 cells; approximately 64-72 hours incubation; read-out: MTT Assay IC50 Z-138
pIC50: −log10 of the molar value.

Lookup: Give the measured pIC50 of Nc1ccc(/C=C/C(=O)NCc2nc3cc(-c4ccc(C(=O)N5CC(F)(F)C5)cc4)cc(Cl)c3o2)cn1 .
Found: 5.30 to 7.00

Lookup: Give the measured pIC50 of Nc1ccc(/C=C/C(=O)NCc2cc3cc(-c4ccc(C(=O)N5CCC(F)CC5)cc4)cc(C(F)(F)F)c3o2)cn1 .
Found: 5.30 to 7.00

Lookup: Give the measured pIC50 of Nc1ccc(/C=C/C(=O)NCc2cc3cc(-c4ccc(CC(=O)N5CCOCC5)cc4)cc(Cl)c3o2)cn1 .
Found: 5.30 to 7.00

Lookup: Give the measured pIC50 of Nc1ccc(/C=C/C(=O)NCc2cc3cc(-c4ccc(C(=O)N5CCNCC5)cc4)cc(C(F)(F)F)c3o2)cn1 .
Found: > 7.00

Lookup: Give the measured pIC50 of Nc1ccc(/C=C/C(=O)NCc2cc3cc(-c4ccc(C(=O)N5CCOCC5)cn4)cc(-c4ccc(F)cc4)c3o2)cn1 .
Found: > 7.00

Lookup: Give the measured pIC50 of CN(C)c1ccc(/C=C/C(=O)NCc2cc3cc(-c4ccc(C(=O)N5CCOCC5)cc4)cc(Cl)c3o2)cn1 .
Found: < 5.00

Data origin, for the record: patent US12331040B2
